# Tested on: P-gp
# experiment: Intracellular compound accumulation (Kp) and intracellular bioavailability (Fic)
# condition parameters: dog, MDCK II wild-type cells
measured property: Kp at 45 min

Bench note, P-gp: CCc1c2c(nc3ccc(OC(=O)N4CCC(N5CCCCC5)CC4)cc13)-c1cc3c(c(=O)n1C2)COC(=O)[C@]3(O)CC [Irinotecan] , Kp at 45 min reads 4.7

Bench note, P-gp: CCOC(=O)[C@H](CCc1ccccc1)N[C@@H](C)C(=O)N1CCC[C@H]1C(=O)O [Enalapril] , Kp at 45 min reads 1.3

Bench note, P-gp: Cc1c(O)cccc1C(=O)N[C@@H](CSc1ccccc1)[C@H](O)CN1C[C@H]2CCCC[C@H]2C[C@H]1C(=O)NC(C)(C)C [Nelfinavir] , Kp at 45 min reads 494

Bench note, P-gp: COc1ccc(CCN2CCC(Nc3nc4ccccc4n3Cc3ccc(F)cc3)CC2)cc1 [Astemizole] , Kp at 45 min reads 1680

Bench note, P-gp: CC(C)(C)NC(=O)[C@@H]1C[C@@H]2CCCC[C@@H]2CN1C[C@@H](O)[C@H](Cc1ccccc1)NC(=O)[C@H](CC(N)=O)NC(=O)c1ccc2ccccc2n1 [Saquinavir] , Kp at 45 min reads 98

A = COc1ccc2c(c1)c(CC(=O)O)c(C)n2C(=O)c1ccc(Cl)cc1 [Indomethacin]
B = COc1cc2nc(N3CCN(C(=O)c4ccco4)CC3)nc(N)c2cc1OC [Prazosin]
C = NC(=O)N1c2ccccc2C=Cc2ccccc21 [Carbamazepine]
D = CCOc1nc2cccc(C(=O)O)c2n1Cc1ccc(-c2ccccc2-c2nnn[nH]2)cc1 [Candesartan]
Ordering criterion: Kp at 45 min; begin with the maximum. # output: labels, in the requested order B, A, C, D
(B: 118, A: 22, C: 8.4, D: 2.2)
